- test target: LASV A19 (lineage II) glycoprotein (Lassa virus, strain A19)
- protocol notes: cell-based or functional assay
observation type: IC80 (neutralization) (µg/mL)
Answer in µg/mL, number only, no unit symbol.

Input line: // lookup IC80 (neutralization) for 37.7H (antibody, V domains shown) VH: EVQLVQSGGGLVKAGGSLRLSCAASGFTFSTYSMNWIRQAPGKGLEWVASISSRSGSHINYVDSVKGRFTISRDNARDLLYLQMNSLRVDDSALYYCARDRRSGTSPLPLDVWGQGTTVTVFS VL: DQSALTQPASVSGSPGQSITISCTGTGSDIGGYNFVSWYQQYPGKAPKLIIYEVRIRASGVSNRFSGSKSGNTASLTISGLQAEDEADYYCNSYSIHSPWVFGGGTKLTVLR
Output line: 0.537
